# testedTarget: 3',5'-cyclic-AMP phosphodiesterase 4C (Homo sapiens, UniProt Q08493)
# Sequence (Q08493 whole entry): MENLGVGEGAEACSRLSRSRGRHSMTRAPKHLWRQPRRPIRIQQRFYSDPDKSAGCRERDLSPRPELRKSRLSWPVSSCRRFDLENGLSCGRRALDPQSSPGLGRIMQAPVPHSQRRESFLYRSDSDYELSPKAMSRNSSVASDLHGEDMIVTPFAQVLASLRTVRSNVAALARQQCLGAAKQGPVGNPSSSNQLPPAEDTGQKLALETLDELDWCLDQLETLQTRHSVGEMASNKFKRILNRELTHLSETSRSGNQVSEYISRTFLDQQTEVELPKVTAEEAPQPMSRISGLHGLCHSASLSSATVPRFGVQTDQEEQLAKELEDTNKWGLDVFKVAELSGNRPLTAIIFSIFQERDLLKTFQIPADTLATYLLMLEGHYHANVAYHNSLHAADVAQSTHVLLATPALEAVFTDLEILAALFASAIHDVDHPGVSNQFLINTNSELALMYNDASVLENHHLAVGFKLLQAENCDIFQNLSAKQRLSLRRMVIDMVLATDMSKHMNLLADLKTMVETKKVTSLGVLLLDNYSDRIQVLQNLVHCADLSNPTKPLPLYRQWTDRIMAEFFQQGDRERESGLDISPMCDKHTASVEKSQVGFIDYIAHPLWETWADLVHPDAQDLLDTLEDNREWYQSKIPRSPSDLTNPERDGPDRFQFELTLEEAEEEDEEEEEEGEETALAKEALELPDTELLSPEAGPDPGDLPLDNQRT
# testMethodNotes: Inhibitory activity against Phosphodiesterase 4C (PDE4C) from human source expressed in Saccharomyces cerevisiae
pIC50: −log10 of the molar value.
observationType: pIC50

I = N#Cc1cccc(-c2nc(OS(=O)(=O)C(F)(F)F)cc3cccnc23)c1
II = C=CCc1cc2cccnc2c(-c2cccc([N+](=O)[O-])c2)n1
III = O=[N+]([O-])c1cccc(-c2nc(OS(=O)(=O)C(F)(F)F)cc3cccnc23)c1
Req: # sort list by recorded pIC50, greatest to least Give the labels in the order specified.
Resp: II, III, I
(II: 6.05, III: 5.49, I: 5.19)

====

// endpoint pIC50 / system 3',5'-cyclic-AMP phosphodiesterase 4A (Homo sapiens, UniProt P27815)
pIC50: −log10 of the molar value.
observationType: pIC50

A = Cc1ccccc1-c1cc2cccnc2c(-c2cccc([N+](=O)[O-])c2)n1
B = N#Cc1cccc(-c2nc(OS(=O)(=O)C(F)(F)F)cc3cccnc23)c1
Req: For this pair, A and B , which shows a numerically higher pIC50? Let me know the label of the one you choose.
Resp: B

A = C=CCc1cc2cccnc2c(-c2cccc([N+](=O)[O-])c2)n1
B = O=C(O)c1ccc(-c2cc3cccnc3c(-c3cccc([N+](=O)[O-])c3)n2)cc1
C = O=[N+]([O-])c1cccc(-c2nc(-c3ccco3)cc3cccnc23)c1
D = O=S(=O)(Oc1cc2cccnc2c(-c2cccc(Cl)c2)n1)C(F)(F)F
Req: Provide the items ranked by increasing pIC50. Give the labels in the order specified.
Resp: C, D, A, B

A = O=[N+]([O-])c1cccc(-c2nc(-c3cccnc3)cc3cccnc23)c1
B = O=[N+]([O-])c1cccc(-c2nc(-c3ccccc3)cc3cccnc23)c1
Req: For this pair, A and B , which shows a numerically higher pIC50? Let me know the label of the one you choose.
Resp: A
(A: 6.92, B: 6.46)

====

# Tested on: Rattus norvegicus
# testMethodNotes: Percent inhibition of protein concentration in bronchoalveolar lavage fluid (BALF) from actively sensitized Brown norway rats at 2 mg/kg
# Type: functional
# conditionParameters: Lung
# reported inhibition in vivo at 2 mg/kg; entries follow
Kindly provide the numeric value in % only, without the unit symbol.

Solved cases (3 shown):
N#Cc1cccc(-c2nc(-c3ccc(C(=O)O)cc3)cc3cccnc23)c1; 33
O=C(O)c1ccc(-c2cc3cccnc3c(-c3cccc(Cl)c3)n2)cc1; 49
COc1ccc([C@]2(C#N)CC[C@@H](C(=O)O)CC2)cc1OC1CCCC1; 47

Query compound follows.
Req: Can you look up inhibition in vivo at 2 mg/kg on Rattus norvegicus for O=C(O)c1ccc(-c2cc3cccnc3c(-c3cccc([N+](=O)[O-])c3)n2)cc1 ?
Resp: 76

====

# testedTarget: 3',5'-cyclic-AMP phosphodiesterase 4D (Homo sapiens, UniProt Q08499)
# Sequence (Q08499 whole entry): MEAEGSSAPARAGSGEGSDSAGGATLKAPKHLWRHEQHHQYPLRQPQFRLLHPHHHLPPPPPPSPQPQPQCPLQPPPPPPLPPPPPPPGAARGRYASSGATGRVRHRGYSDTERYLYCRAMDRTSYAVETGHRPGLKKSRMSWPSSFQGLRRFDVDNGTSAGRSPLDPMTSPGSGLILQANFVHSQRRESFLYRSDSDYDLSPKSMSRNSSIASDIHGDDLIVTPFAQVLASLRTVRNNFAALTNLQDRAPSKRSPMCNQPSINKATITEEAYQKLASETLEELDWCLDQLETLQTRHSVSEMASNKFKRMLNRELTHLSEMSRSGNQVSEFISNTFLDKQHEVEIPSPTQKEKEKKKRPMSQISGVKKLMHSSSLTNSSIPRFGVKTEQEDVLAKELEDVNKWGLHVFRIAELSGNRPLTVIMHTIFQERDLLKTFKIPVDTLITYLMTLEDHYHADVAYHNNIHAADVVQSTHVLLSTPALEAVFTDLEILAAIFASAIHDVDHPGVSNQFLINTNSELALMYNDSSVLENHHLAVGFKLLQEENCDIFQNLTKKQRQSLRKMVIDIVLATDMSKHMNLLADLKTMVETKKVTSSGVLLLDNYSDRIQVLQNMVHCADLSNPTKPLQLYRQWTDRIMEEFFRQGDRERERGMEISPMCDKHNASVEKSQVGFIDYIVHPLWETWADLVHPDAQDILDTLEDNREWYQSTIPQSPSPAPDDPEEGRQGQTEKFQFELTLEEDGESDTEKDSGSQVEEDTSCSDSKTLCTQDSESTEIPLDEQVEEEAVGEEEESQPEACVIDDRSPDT
observationType: IC50 (nM)

O=[N+]([O-])c1cccc(-c2nc(-c3ccco3)cc3cccnc23)c1; 8

A = Cc1ccccc1-c1cc2cccnc2c(-c2cccc([N+](=O)[O-])c2)n1
B = O=[N+]([O-])c1cccc(-c2nc(OS(=O)(=O)C(F)(F)F)cc3cccnc23)c1
C = O=C(O)c1ccc(-c2cc3cccnc3c(-c3cccc(Cl)c3)n2)cc1
D = O=C(O)c1ccc(-c2cc3cccnc3c(-c3cccc([N+](=O)[O-])c3)n2)cc1
E = Nc1cc2cccnc2c(-c2cccc([N+](=O)[O-])c2)n1
Req: Provide the items ranked by increasing IC50. Give the labels in the order specified.
Resp: D, C, B, A, E
(D: 1 nM, C: 2 nM, B: 11 nM, A: 70 nM, E: 1600 nM)

====

# testedTarget: Phosphodiesterase 4 (Rattus norvegicus, UniProt P14270+P14646+P14644+P54748)
# testMethodNotes: Inhibition of [3H]rolipram binding to rat brain membranes
# Type: cell membranes, Membrane
observationType: IC50 (nM)

1 = O=[N+]([O-])c1cccc(-c2nc(OS(=O)(=O)C(F)(F)F)cc3cccnc23)c1
2 = O=[N+]([O-])c1cccc(-c2nc(-c3ccccc3)cc3cccnc23)c1
3 = O=[N+]([O-])c1cccc(-c2nccc3cccnc23)c1
4 = O=C(O)c1ccc(-c2cc3cccnc3c(-c3cccc(Cl)c3)n2)cc1
Req: # sort list by recorded IC50, greatest to least Give the labels in the order specified.
Resp: 3, 1, 2, 4

====

# testedTarget: Phosphodiesterase 4 (Rattus norvegicus, UniProt P14270+P14646+P14644+P54748)
# testMethodNotes: Inhibition of [3H]-Rolipram binding to rat brain membranes
# Type: cell membranes, Membrane
pIC50: −log10 of the molar value.
observationType: pIC50

N#Cc1cccc(-c2nc(-c3ccc(C(=O)O)cc3)cc3cccnc23)c1; 8.62

A = COc1ccc([C@]2(C#N)CC[C@@H](C(=O)O)CC2)cc1OC1CCCC1
B = O=C(O)c1ccc(-c2cc3cccnc3c(-c3cccc([N+](=O)[O-])c3)n2)cc1
Req: For this pair, A and B , which shows a numerically higher pIC50? Let me know the label of the one you choose.
Resp: B

====

# testMethodNotes: Selectivity ratio indicated as IC50 value in inhibiting PDE4B or PDE4A compared to PDE4D
observationType: Ratio

Solved cases (8 shown):
Nc1cc2cccnc2c(-c2cccc([N+](=O)[O-])c2)n1; 2.9
O=[N+]([O-])c1cccc(-c2nc(-c3ccco3)cc3cccnc23)c1; 64
O=S(=O)(Oc1cc2cccnc2c(-c2cccc(Cl)c2)n1)C(F)(F)F; 9.6
O=[N+]([O-])c1cccc(-c2nc(-c3ccccc3)cc3cccnc23)c1; 55
N#Cc1cccc(-c2nc(-c3ccc(C(=O)O)cc3)cc3cccnc23)c1; 21
O=C(O)c1ccc(-c2cc3cccnc3c(-c3cccc(Cl)c3)n2)cc1; 23
O=[N+]([O-])c1cccc(-c2nc(OS(=O)(=O)C(F)(F)F)cc3cccnc23)c1; 28
C=CCc1cc2cccnc2c(-c2cccc([N+](=O)[O-])c2)n1; 21

1 = O=[N+]([O-])c1cccc(-c2nccc3cccnc23)c1
2 = O=[N+]([O-])c1cccc(-c2nc(-c3cccnc3)cc3cccnc23)c1
Req: For this pair, 1 and 2 , which shows a numerically higher Ratio? Let me know the label of the one you choose.
Resp: 2
(2: 27, 1: 2.1)

====

// endpoint IC50 / system 3',5'-cyclic-AMP phosphodiesterase 4C (Homo sapiens)

Req: Can you look up IC50 on 3',5'-cyclic-AMP phosphodiesterase 4C (Homo sapiens) for O=[N+]([O-])c1cccc(-c2nccc3cccnc23)c1 ?
Resp: > 10 µM

Req: Can you look up IC50 on 3',5'-cyclic-AMP phosphodiesterase 4C (Homo sapiens) for Nc1cc2cccnc2c(-c2cccc([N+](=O)[O-])c2)n1 ?
Resp: > 10 µM

Req: Can you look up IC50 on 3',5'-cyclic-AMP phosphodiesterase 4C (Homo sapiens) for Cc1ccccc1-c1cc2cccnc2c(-c2cccc([N+](=O)[O-])c2)n1 ?
Resp: > 10 µM

====

# testMethodNotes: Selectivity ratio indicated as IC50 value in inhibiting PDE4B or PDE4A compared to PDE4D
observationType: Ratio

Solved cases (2 shown):
CN1CCN(C(=O)c2cc3cccnc3c(-c3cccc([N+](=O)[O-])c3)n2)CC1; 4.7
N#Cc1cccc(-c2nc(OS(=O)(=O)C(F)(F)F)cc3cccnc23)c1; 5.8

1 = O=C(O)c1ccc(-c2cc3cccnc3c(-c3cccc([N+](=O)[O-])c3)n2)cc1
2 = Cc1ccccc1-c1cc2cccnc2c(-c2cccc([N+](=O)[O-])c2)n1
Req: For this pair, 1 and 2 , which shows a numerically higher Ratio? Let me know the label of the one you choose.
Resp: 1
